Catalogue of compounds with associated pIC50
SYSTEM NAME: Macrophage migration inhibitory factor (Homo sapiens, UniProt P14174)
Sequence (P14174 whole entry): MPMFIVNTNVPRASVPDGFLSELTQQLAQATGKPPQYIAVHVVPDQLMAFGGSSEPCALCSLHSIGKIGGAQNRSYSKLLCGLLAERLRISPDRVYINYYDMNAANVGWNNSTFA
Formally, pIC50 is defined as -log10 of the concentration c, with c in mol/L.

What value of pIC50 has been reported for the following compound? `COC(=O)[C@H](CCSC)/N=C/c1ccc(O)cc1`
4.00

What value of pIC50 has been reported for the following compound? `CC[C@H](/N=C/c1ccc(O)cc1)C(=O)OC`
4.15

// data source = ChEMBL document CHEMBL1135456
